test.method.notes: Solubility at pH-7.4
Type: physicochemical
measure.name: log10 solubility (log10 of the value in µg/mL)
Could you please treat all values as log10 of solubility in µg/mL?

Worked cases, log10 solubility given:
{"compound": "COCCOCCOCCOCCOC(=O)OC[n+]1ccc(N/C(=N/C#N)NCCCCCCOc2ccc(Cl)cc2)cc1.[Cl-] [TEGLARINAD CHLORIDE]", "log10 solubility": 2.08}
{"compound": "COCCOCCOCCOC(=O)OC[n+]1ccc(N/C(=N/CCCCCCOc2ccc(Cl)cc2)NC#N)cc1.[Cl-]", "log10 solubility": 1.92}
{"compound": "COCCOCCOC(=O)OC[n+]1ccc(N/C(=N/CCCCCCOc2ccc(Cl)cc2)NC#N)cc1.[Cl-]", "log10 solubility": 1.15}

Your task in this section: give log10 solubility for each listed record.
1. N#CN=C(NCCCCCCOc1ccc(Cl)cc1)Nc1ccncc1
2. Cl.N#CN/C(=N\CCCCCCOc1ccc(Cl)cc1)Nc1cc[n+](COC(=O)NCCCN)cc1.[Cl-]
3. Cl.N#CN/C(=N\CCCCCCOc1ccc(Cl)cc1)Nc1cc[n+](COC(=O)OCCCCCCCCCN)cc1.[Cl-]

1. -0.30
2. 2.40
3. 1.58

Origin of values: ChEMBL document CHEMBL1145242
